Molecular target: heterodimeric RT (Human immunodeficiency virus type 1 group M subtype B)
Construct: The heterodimeric p66/p51 RT was eluted with an imidazole gradient; p66 and p51 derived from p66 by proteolytic cleavage of the C-terminal RNAse H domain; made in house; host or cells: E. coli (M15 for the His-tagged subunits)
Test: Steady-state fluorescence titration of FITC-PAW with RT
Parameters: species or system HIV-1
Settings: 200 nM FITC-PAW titrated with RT; read-out: dissociation constant (Kd), binding to heterodimeric RT
experimental-endpoint: Kd
State the value, then name its unit.

# query: Kd of entry GTKWLTEWIPLTAEAEC-FITC [PAW-FITC]
33 nM

Measured values drawn from patent US20110294728A1 for this set.
